B1: TPR t1 (parent)
chain: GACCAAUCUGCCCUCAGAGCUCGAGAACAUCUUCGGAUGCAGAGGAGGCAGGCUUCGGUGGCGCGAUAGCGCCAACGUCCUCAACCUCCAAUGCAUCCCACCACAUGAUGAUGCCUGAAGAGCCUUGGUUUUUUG

# Variants of: B1
# test-details: polymerase ribozyme fitness, log enrichment relative to wild type (log ratio); higher = more active; in vitro selection for triplet polymerase activity
Response key: True means polymerase ribozyme fitness (log ratio) >= -3; False means polymerase ribozyme fitness (log ratio) < -3.

1. GACCAAUCUGCCCUCAGAGCUCGAGAACAUCUUCGGAUGCAGAGGAGGCAGGCUUCGGUGGCGAGAUAGCGCCAACGUCCUCAACCUCCAAUGCAUCCCACCACAUGAUGAUCCCUGGAGAGCCUUGGUUUUUUG [C64A G113C A118G]: False
2. GACCAAUGUGCCCUCAGAGCUCGAGAACAUCUUCGGAUGCAGAGGAGGCAGGCUUCGGUGGCUCGAUAGCGCCAACGUCCUCAACCUCCAAUGCAUCCCACCACAUGAUGAUGCCUGAAGAGCCUUGGUUUUUUG [C8G G63U]: True
3. GACCAAUCUGCCCUCAGAGCUCGAGAACAUCUUCGGAUGCAGAGGAGGCAGGCUUCGGUGGCGCGAUAGCGCCAACGUCCUCAACCUCCAAUGCAUCCCACCAAAUGAUGAUGCCUGAAAAGCCUUGGUUUUUUG [C104A G120A]: True
4. GACCAAUCUGCCCUCAGAGCUCGAGAACAUCUUCGGAUGCAGAGGAGGCAGGCUUCGGUGGCGCGAUAGUGCCAACGUCUUCAACCUCCAAUGCAUCCCACCACAUGAUGAUCCCUGAGGAGCCUUGGUUUUUUG [C70U C80U G113C A119G]: False
5. GACCAAUCGGCCCUCAGAGCUCGAGAACAUCUUCGGAUGCAGAGGAGGCAGGCUUCGGUGGCUCGAUAGCGCCAACGUCCUCAACCUCCAAUGCAUCCCACCACAUGAUGAUGCCUGAACAGCCUUGGUUUUUUG [U9G G63U G120C]: True
6. GACCAAUCUGCCCUCAGAGCUCAAGAACAUCUUCGGAUGCAGAGGAGGCAGGCUUCGGUGGCGCGAUAGCGCGAACGUCCUCAACCUCCAAUGCAUCCCACCACAUGAUGAUGCCUGAAGAGCCUUGGUUUUUUG [G23A C73G]: False
7. GACCAAUCUGCCCUCAGAGCUCGAGAACAUCUUCGGAUGCAGUGGAGGCAGGCUUCGUUGGCGCGAUAGCGCCAACGUCCUCAACCUCCAAUGCAUCCCACCACAUGAUGAUGCCUGAAGAGCCUGGGUUUUUUG [A43U G58U U126G]: False
8. GACCAAUCCGCCCUCAGAGCUCGAGAACAUUUUCGGAUGCAGAGGAGGCAGGCUUAGGUGGCGCGAUAGCGCCAACGUCCUCAACCUCCAAUGCAUCCCACCUCAUGAUGAUGCCUGAAUAGCCUUGGUUUUUUG [U9C C31U C56A A103U G120U]: False
9. GACCAAUCUGCCCUCAGAGCUCGAGAACAUCUUCGGAUGCAGAGGAGGCAGGAUUCGGUGGCGCGAUAGCGCCAACGUCCUCGACCUCCAAUGCAUCCCACCACCUGAUGAUGCCUGAAGAGCCUUGGUUUUUUG [C53A A83G A105C]: False
10. GACCAAUCUGCCCUCAGAGCUCGAGAACAUCUUCGGAUGCAGAGGAGGCAGGCUUCGGUGGCGUGAUAGCGCCAACGUCUUCAACCUCCAAUGCAUCCCACCACAUGAUGAUGCCUGAAGAGCCUUGGUUUUUUG [C64U C80U]: True
11. GAACAAUCUGCCCUCAGAGCUCGAGAACAUCUUCGGAUGCAGAGGAGGCAGGCUUCGGUGGCGCGAUAGCGCCUACGUCCUCAACCUCCAAUGCAUCCCACCACAUGAUGAUGCCUGAAUAGCCAUGGUUUUUUG [C3A A74U G120U U125A]: True
